system-tested: TRPML1 (Homo sapiens, UniProt Q9GZU1)
Sequence (Q9GZU1 whole entry L15A/L16A/L577A/L578A, form open): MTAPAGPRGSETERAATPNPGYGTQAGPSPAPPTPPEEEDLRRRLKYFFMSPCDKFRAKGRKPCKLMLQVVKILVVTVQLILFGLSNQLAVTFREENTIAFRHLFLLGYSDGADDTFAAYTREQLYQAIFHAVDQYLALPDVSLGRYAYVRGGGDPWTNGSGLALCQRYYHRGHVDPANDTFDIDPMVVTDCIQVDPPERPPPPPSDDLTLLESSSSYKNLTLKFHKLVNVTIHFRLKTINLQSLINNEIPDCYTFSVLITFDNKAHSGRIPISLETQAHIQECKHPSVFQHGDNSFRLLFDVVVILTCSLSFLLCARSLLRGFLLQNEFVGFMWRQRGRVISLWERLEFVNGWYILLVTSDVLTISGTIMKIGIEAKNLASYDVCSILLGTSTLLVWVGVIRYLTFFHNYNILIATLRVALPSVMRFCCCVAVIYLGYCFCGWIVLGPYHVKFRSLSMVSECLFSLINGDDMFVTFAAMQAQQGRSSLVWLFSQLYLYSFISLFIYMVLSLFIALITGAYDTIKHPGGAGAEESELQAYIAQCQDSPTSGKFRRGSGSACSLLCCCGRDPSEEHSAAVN
protocol-details: Fluorescent TRPML1 assay (Fluo4-AM calcium fluorescence in doxycycline-induced HEK-293 Trex cells)
Type: cell-based
pEC50: −log10 of the molar value.
We begin with a simple list: items and their reported pEC50.

- compound: "Cc1cn(-c2cccc(C#N)c2)c2ncnc(N3CCN(C(=O)OC(C)(C)C)C[C@@H]3C)c12"
  pEC50: "> 7.00"
- compound: "CC(C)(C)OC(=O)N1CCN(c2ncnc3c2c(C(F)(F)F)cn3-c2cc(C#N)ccn2)C(C)(C)C1"
  pEC50: "6.30 to 7.00"
- compound: "[2H]C([2H])([2H])C(OC(=O)N1C[C@H](C)N(c2ncnc3c2c(C(F)F)cn3-c2cc(C#N)ccn2)C[C@H]1C)(C([2H])([2H])[2H])C([2H])([2H])[2H]"
  pEC50: "> 7.00"
- compound: "Cc1cn(-c2cc(C#N)ccn2)c2ccnc(N3C[C@@H](C)N(C(=O)OC(C)(C)C)C[C@@H]3C)c12"
  pEC50: "> 7.00"
- compound: "C[C@@H]1CN(c2ncnc3c2c(C(F)(F)F)cn3[C@@H]2CCCOC2)[C@@H](C)CN1C(=O)OC(C)(C)C"
  pEC50: "5.70 to 6.30"
- compound: "CC(C)c1cn(-c2cc(C#N)ccn2)c2ncnc(N3C[C@@H](C)N(C(=O)OC(C)(C)C)C[C@@H]3C)c12"
  pEC50: "> 7.00"
- compound: "Cc1c(C(F)(F)F)c2c(N3C[C@@H](C)N(C(=O)OC(C)(C)C)C[C@@H]3C)ncnc2n1-c1cc(C#N)ccn1"
  pEC50: "6.30 to 7.00"
- compound: "C[C@@H]1CN(c2ncnc3c2c(C(F)F)cn3C2CCCC2)[C@@H](C)CN1C(=O)OC(C)(C)C"
  pEC50: "5.70 to 6.30"
- compound: "Cc1cn(-c2cc(F)ccn2)c2ncnc(N3CCN(C(=O)OC(C)(C)C)[C@H](C)C3)c12"
  pEC50: "6.30 to 7.00"
- compound: "C[C@H]1CN(C(=O)OC(C)(C)C)CCN1c1ncnc2c1c(C(F)(F)F)cn2-c1cccc(Cl)c1"
  pEC50: "> 7.00"
- compound: "C[C@@H]1CN(c2ncnc3c2c(C(F)(F)F)cn3C2CCCC(C#N)C2)[C@@H](C)CN1C(=O)OC(C)(C)C (stereo partly drawn)"
  pEC50: "5.70 to 6.30"
- compound: "C[C@@H]1CN(c2ncnc3c2c(C(F)(F)F)cn3-c2cc(F)cc(F)c2)[C@@H](C)CN1C(=O)OC1(C)CC1"
  pEC50: "6.30 to 7.00"
- compound: "C[C@@H]1CN(c2ncnc3c2c(C(F)(F)F)cn3[C@H]2CCCOC2)[C@@H](C)CN1C(=O)OC(C)(C)C"
  pEC50: "5.70 to 6.30"
- compound: "C[C@@H]1CN(c2ncnc3c2c(C2CC2)cn3-c2ccccn2)[C@@H](C)CN1C(=O)OC(C)(C)C"
  pEC50: "6.30 to 7.00"
- compound: "C[C@@H]1CN(c2ncnc3c2c(C(F)F)cn3-c2cccc(Cl)c2)[C@@H](C)CN1C(=O)OC1(C)CC1"
  pEC50: "6.30 to 7.00"
- compound: "C[C@@H]1CN(c2ncnc3c2c(C(F)(F)F)cn3-c2cncc(C#N)c2)[C@@H](C)CN1C(=O)OC(C)(C)C"
  pEC50: "> 7.00"
- compound: "CCC(CC)OC(=O)N1C[C@H](C)N(c2ncnc3c2c(C(F)(F)F)cn3-c2cc(C#N)ccn2)C[C@H]1C"
  pEC50: "> 7.00"
- compound: "[2H]C([2H])([2H])[C@@H]1CN(c2ncnc3c(-c4cc(C#N)ccn4)cn(-c4ccccc4F)c23)[C@@H](C)CN1C(=O)OC(C)(C)C"
  pEC50: "> 7.00"
- compound: "C[C@@H]1CN(c2ncnc3c2c(C(C)(C)C)cn3-c2cc(C#N)ccn2)[C@@H](C)CN1C(=O)OC(C)(C)C"
  pEC50: "> 7.00"
- compound: "C[C@H]1CN(C(=O)OC(C)(C)C)CCN1c1ncnc2c1c(C(F)(F)F)cn2-c1cc(F)cc(F)c1"
  pEC50: "> 7.00"
- compound: "C[C@@H]1CN(c2ncnc3c2c(C(F)F)cn3-c2cccc(F)c2)[C@@H](C)CN1C(=O)OC(C)(C)C"
  pEC50: "> 7.00"
- compound: "C[C@@H]1CN(c2ncnc3c2c(C(F)(F)F)cn3-c2cccc(F)c2)[C@@H](C)CN1C(=O)OC(C)(C)C"
  pEC50: "> 7.00"
- compound: "CC(C)(C)OC(=O)N1CCN(c2ncnc3c2c(C(F)(F)F)cn3-c2cc(C#N)ccn2)CC1"
  pEC50: "5.70 to 6.30"
- compound: "C[C@@H]1CN(c2ncnc3c2c(N2CCC2)cn3-c2cccc(F)c2)[C@@H](C)CN1C(=O)OC(C)(C)C"
  pEC50: "> 7.00"
- compound: "Cc1cn(-c2cccc(Cl)c2)c2ncnc(N3C[C@@H](C)N(C(=O)OC(C)(C)C)C[C@@H]3C)c12"
  pEC50: "> 7.00"
- compound: "C[C@H]1CN(C(=O)OC(C)(C)C)CCN1c1ncnc2c1c(C(F)F)cn2-c1cc(C#N)ccn1"
  pEC50: "> 7.00"
- compound: "Cc1cn(-c2cc(C(F)(F)F)ccn2)c2ncnc(N3CCN(C(=O)OC(C)(C)C)[C@H](C)C3)c12"
  pEC50: "> 7.00"
